The measurements presented in this section are drawn from patent US20250121082A1.

TARGET_UNDER_TEST: T1, Human CD228 protein (human, UniProt P08582 20-708, limits assumed)
T1 construct: Recombinant protein made in CHO cells, purified over a Ni column; The printed entry begins with the leader (MRGPSG...) and ends with ten His; also called hCD228; CD228-His protein
T1 sequence: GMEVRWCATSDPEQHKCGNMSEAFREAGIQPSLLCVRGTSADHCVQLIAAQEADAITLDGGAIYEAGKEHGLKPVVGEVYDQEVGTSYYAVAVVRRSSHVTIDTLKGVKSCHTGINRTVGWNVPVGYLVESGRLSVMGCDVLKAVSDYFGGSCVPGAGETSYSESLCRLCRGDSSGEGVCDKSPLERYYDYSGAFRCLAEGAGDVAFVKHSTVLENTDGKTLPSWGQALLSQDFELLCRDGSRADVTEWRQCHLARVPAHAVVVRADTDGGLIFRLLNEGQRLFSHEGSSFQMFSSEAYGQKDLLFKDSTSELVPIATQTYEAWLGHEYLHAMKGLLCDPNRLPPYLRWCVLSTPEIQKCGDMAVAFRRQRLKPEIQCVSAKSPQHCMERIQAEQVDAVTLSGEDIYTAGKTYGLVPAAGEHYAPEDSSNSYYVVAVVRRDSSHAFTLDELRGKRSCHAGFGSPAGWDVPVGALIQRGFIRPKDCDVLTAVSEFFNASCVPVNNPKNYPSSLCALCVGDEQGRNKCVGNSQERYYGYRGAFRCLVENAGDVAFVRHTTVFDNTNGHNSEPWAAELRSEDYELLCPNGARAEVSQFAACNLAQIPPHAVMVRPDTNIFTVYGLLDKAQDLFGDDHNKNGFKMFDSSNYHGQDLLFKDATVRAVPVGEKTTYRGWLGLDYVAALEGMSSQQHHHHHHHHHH
MEASUREMENT_NOTES: Octet, CD228 on His chip; PBST buffer in place of the first antibody
MEASURED_METRIC: Octet response value (blank value, PBST buffer)
API doc: respond with a numeric literal and nothing else, no unit.

Reference set (6 entries):
{"BINDER": "BA352 (antibody, human IgG1, kappa, V domains shown, Intact IgG1) VH: EVQLVESGGGVVQPGRSLRLSCAASGFTFSSYAMHWVRQAPGKGLEWVAVISYDGSNKYYADSVKGRFTISRDNSKNTLYLQMNSLRAEDTAVYYCARGPYLAAAGTALTFDIWGQGTMVTVSS VL: DIQMTQSPSAMSASVGDRVTITCRASQGINNYLAWFQQKPGKVPKRLIYAASSLQSGVPSRFSGSGSGTEFTLTISSLQPEDFATYYCLQHNSYPFTFGPGTKVDIKR", "OBS_VALUE": 0.393}
{"BINDER": "CA149 (antibody, human IgG1, kappa, V domains shown, Intact IgG1; also called CA149 antibody) VH: EVQLVESGGGVVQPGRSLRLSCAASGFTFSSYAMHWVRQAPGKGLEWVAVISFDGSNKYYTDSVKGRFTISRDNSKNTLYLQMNSLRAEDTAVYYCAREVPYYYGSGPFDYWGQGTLVTVSS VL: EIVLTQSPATLSVSPGERATLSCRASQSVSSNLAWYQQKPGQAPRHLIDGASSRASGIPDRFSGSGSGTDFTLTISRLEPEDFAVYYCQQYGSSPPFTFGPGTKVDIKR", "OBS_VALUE": 0.409}
{"BINDER": "CA67 (antibody, human IgG1, kappa, V domains shown, Intact IgG1) VH: EVQLVESGGGVVQPGRSLRLSCAASGFTFSSYAMHWVRQAPGKGLEWVAVISYDGSNKYYADSVKGRFTISRDNSKNTLYLQMNSLRAEDTAVYYCARDVYHYGSRSPYYYGMDVWGQGTTVTVSS VL: DIQMTQSPSSLSASVGDRVTITCRASQAISNYLAWYQQKPGKVPKLLIYAASTLHPGVPSRFSGSGSGTDFTLTISSLQPEDVATYYCQKYNSAPFTFGPGTKVDIKR", "OBS_VALUE": 0.425}
{"BINDER": "CA13 (antibody, human IgG1, kappa, V domains shown, Intact IgG1 from fully human antibody-transgenic mice) VH: EVQLVESGGGVVQPGRSLRLSCAASGFTFSSYAMHWVRQAPGKGLEWVAVISYDGSNKYYADSVKGRFTISRDNSKNTLFLQMNSLRAEDTAVYYCARDVYHYGSRSPYYYGMDVWGQGTTVTVSS VL: DIVMTQSPSSLSASVGDRVTITCRASQGISNYLAWFQQKPGKVPKLLIYAASTLQSGVPSRFSGSGSGTDFTLTISSLQPEDVATYYCQKYNSAPFTFGPGTKVDIKR", "OBS_VALUE": 0.393}
{"BINDER": "reference antibody hL49 (antibody, human IgG1, kappa, V domains shown, also called H149; hL49 analogy) VH: QVQLQESGPGLVKPSETLSLTCTVSGDSITSGYWNWIRQPPGKGLEYIGYISDSGITYYNPSLKSRVTISRDTSKNQYSLKLSSVTAADTAVYYCARRTLATYYAMDYWGQGTLVTVSS VL: DFVMTQSPLSLPVTLGQPASISCRASQSLVHSDGNTYLHWYQQRPGQSPRLLIYRVSNRFSGVPDRFSGSGSGTDFTLKISRVEAEDVGVYYCSQSTHVPPTFGQGTKLEIKR", "OBS_VALUE": 0.347}
{"BINDER": "CA185 (antibody, human IgG1, kappa, V domains shown, Intact IgG1) VH: EVQLVESGGGVVQPGRSLRLSCAASGFTFSSYAMHWVRQAPGKGLEWVAVISYDGSNKYYADSVKGRFTISRDNSKNTLYLQMNSLRAEDTAVYYCAREVPYYYGSGPFDYWGQGTLVTVSS VL: EIVLTQSPGTLSLSPGERATLSCRASQSVSSSSLAWYQQKPGQAPRHLIDGASSRASGIPDRFSGSGSGTDFTLTISRLEPEDFAVYYCQQYGSSYTFGQGTKVDIKR", "OBS_VALUE": 0.411}

Challenge: Please look up its Octet response value (blank value, PBST buffer): CA518 (antibody, human IgG1, kappa, V domains shown, Intact IgG1) VH: EVQLVESGGGVVQPGRSLRLSCAASGFTFSSYAMHWVRQAPGKGLEWVAVISYDGSNKYHADSVKGRFTISRDNSKNTLFLQMNSLRAEDTAVYYCVRDVYHYGSRSPYYYGMDVWGQGTTVTVSS VL: DIQMTQSPSSVSASVGDRVTITCRASQGISSWLAWYQQKPGKAPKLLIYAASSLQSGVPSRFSGSGSGTDFTLTISSLQPEDVATYYCQKYNSAPFTFGPGTKVDIKR
Response given: 0.442
